Test: Half life in monkey (dosed at 0.5 mpk iv and 2.0 mpk orally)
Format: ADME, organism-based
Settings: cercopithecidae, in vivo
Reported Property: half-life (h)
State just the number; it will be interpreted in h.

Find the recorded half-life belonging to CCn1nc(Cc2ccccc2)cc1C1CCN(C[C@H]2CN([C@@H](C(=O)O)C(C)C)C[C@@H]2c2cccc(F)c2)CC1 and report it.
1.3

====

Biological target: UniProtKB P51681
Sequence (P51681 whole entry): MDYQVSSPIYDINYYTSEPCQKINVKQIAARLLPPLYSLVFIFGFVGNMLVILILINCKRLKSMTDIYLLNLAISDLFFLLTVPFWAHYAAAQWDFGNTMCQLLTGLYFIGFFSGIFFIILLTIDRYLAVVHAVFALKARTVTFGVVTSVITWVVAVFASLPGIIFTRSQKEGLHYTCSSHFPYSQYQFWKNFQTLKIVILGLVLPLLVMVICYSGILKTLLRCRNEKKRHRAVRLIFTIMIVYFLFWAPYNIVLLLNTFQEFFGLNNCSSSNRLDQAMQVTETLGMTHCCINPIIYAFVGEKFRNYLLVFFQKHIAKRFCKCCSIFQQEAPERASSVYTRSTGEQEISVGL
Assay: Inhibitory concentration of compound to displace GP120 from […] chemokine receptor 5
Reported Property: IC50 (nM)
State just the number; it will be interpreted in nM.

Find the recorded IC50 belonging to CCn1nc(Cc2ccccc2)cc1C1CCN(C[C@H]2CN([C@H](CC(C)C)C(=O)O)C[C@@H]2c2ccccc2)CC1 and report it.
2.9

Find the recorded IC50 belonging to CCn1nc(Cc2ccccc2)cc1C1CCN(C[C@H]2CN([C@@H](C(=O)O)C(C)C)C[C@@H]2c2ccccc2)CC1 and report it.
2.8

====

Assay: Oral bioavailability in monkey (dosed at 0.5 mpk iv and 2.0 mpk orally)
Type: ADME, organism-based
Settings: cercopithecidae, in vivo, 2 mg/kg
Reported Property: bioavailability (%)
State just the number; it will be interpreted in %.

Find the recorded bioavailability belonging to CCn1nc(Cc2ccccc2)cc1C1CCN(C[C@H]2CN([C@@H](C(=O)O)C(C)C)C[C@@H]2c2cccc(F)c2)CC1 and report it.
4.7
